test: cells; details: Homo sapiens, Gilteritinib-resistant MOLM-14, 48 h

query smiles | IC50 (nM)
CCc1nc(C(N)=O)c(Nc2ccc(N3CCC(N4CCN(C)CC4)CC3)c(OC)c2)nc1NC1CCOCC1 | 63.2

---

assay: Inhibition of cell viability in human Venetoclax-resistant MV4-11 cells overexpressing Bcl-2 incubated for 48 hrs in presence of GIL by Alamar blue assay; type: functional, cell-based; conditions: Venetoclax-resistant MV4-11, 48 h
pIC50: −log10 of the molar value.

compound | pIC50
CC1(C)CCC(CN2CCN(c3ccc(C(=O)NS(=O)(=O)c4ccc(NCC5CCOCC5)c([N+](=O)[O-])c4)c(Oc4cnc5[nH]ccc5c4)c3)CC2)=C(c2ccc(Cl)cc2)C1 [VENETOCLAX] | 8.06
